experiment: folding stability dG unfold (combined trypsin and chymotrypsin); higher = more stable
Lab note: anything with folding stability dG unfold at or over 3 kcal/mol counts as y; the rest go in n.

SAGGSAGGSAPKPIEITFPAKSLEEAKIAAEEIKRAFEELEDVKVEVEYDPETGTVTVRVYGSAGGSAGGSA [r18_368_TrMRF] ... y
SMMIKVKITITNEKGEEVEIEIVASPEEIEEALRKLLPPGAKVEIEKIEFYPLEELKPGDVIKITVRVKPSA [r9_803_TrROS_Hall] ... y
SAGGSAGGMPLLALSYPVLKDGKLYRVLFLYSPDGTFLGPFYVSADLTEDIPPDTVVLVHPDALSAGGSAGG [r6_33_TrMRF] ... y
SAGGMKIEIVEIEREGNTITIKAKITLPDGTVIEITAKAEFVDGELKLEIKVEVRKLPPPPPPPPEESAGGS [r8_458_TrROS_Hall] ... n
SAGGSAGGSDVEDIIKKLKIPPGYRMRFPDGKSHKFNNLDDIRNLAEMGMPPDNIDKIQIQPYSAGGSAGGS [r12_430_TrROS] ... n
SAGGSAKEALVKAVEELFKKLFPDEPIEVLKVDPEKGRITIKVNSDEARKALEKALKELGIEVDLDSAGGSA [r15_196_TrMRF] ... y
SAGGSAGGSATVDEVIKEAREEAREEHPNYPPGQTHTIKIRDPDNGEKVKIRFTNDGKIEISAGGSAGGSAG [r3_441_TrROS] ... n
SAGKKKKITIEIVIKPKTLEELENKIKEIAKKLGLKKIEKIEIVKIEKDKNGKIKKVVIKITLTEEALKSAG [r5_575_TrROS_Hall] ... n
SAGGSAMVPEDEGLIVVERDVPFDKAEEFVEEVIEELGIPPEKVKKIELFEEKVEDGPALRALVYLSAGGSA [r15_934_TrMRF] ... n
SAGGSAGGSAGGMMVNLKVTREKLPNGKYRVTFTLPNGEEVVVEVESEEEAEAAAKEIAASAGGSAGGSAGG [r11_955_JUSTAS] ... y
SAGGSAGGSAGEPVEVTPLSTETVPDSDTTVTYYKVTYPGGKEAIRTVYSDGTETTTPLPSAGGSAGGSAGG [r11_637_JUSTAS] ... n
SAGGSAGGMTLTVDLPLPDGGTVRLEVEPLPDGTVRVRLTYPDGRKAEFETSAPVEVLLERAAGSAGGSAGG [r6_808_TrMRF] ... n
SAGGSAAMVPPEELAERLAEELAAKEGREVTEVTVEVLDPERGVVRVTVTFRSPEGLSTRTVVVDLSAGGSA [r15_32_JUSTAS] ... y
